Experiment: Pharmacokinetic study of everolimus in mice bearing HT29 tumors (plasma and tumor, LC/MS/MS)
Type: in vivo
Conditions: nude, mouse, po; plasma, 10 mg/kg, mice, non-compartmental analysis
endpoint: Tmax
Hi, when you answer, please include the unit after the number. Thanks!

Input line: GET /values?readout=Tmax&item= CO[C@H]1C[C@@H]2CC[C@@H](C)[C@@](O)(O2)C(=O)C(=O)N2CCCC[C@H]2C(=O)O[C@H]([C@H](C)C[C@@H]2CC[C@@H](OCCO)[C@H](OC)C2)CC(=O)[C@H](C)/C=C(\C)[C@@H](O)[C@@H](OC)C(=O)[C@H](C)C[C@H](C)/C=C/C=C/C=C/1C [Everolimus, 40-O-(2-hydroxyethyl)-rapamycin]
Output line: 30 min

* * *

Experiment: Pharmacokinetic study of everolimus in mice bearing HT29 tumors (plasma and tumor, LC/MS/MS)
Format: in vivo
Details: nude; 10 mg/kg daily oral for 7 days, Mouse, plasma; read-out: t½ (converted)
endpoint: half-life (h)
# number only, unit h dropped from output

Input line: So what does the record say about half-life for CO[C@H]1C[C@@H]2CC[C@@H](C)[C@@](O)(O2)C(=O)C(=O)N2CCCC[C@H]2C(=O)O[C@H]([C@H](C)C[C@@H]2CC[C@@H](OCCO)[C@H](OC)C2)CC(=O)[C@H](C)/C=C(\C)[C@@H](O)[C@@H](OC)C(=O)[C@H](C)C[C@H](C)/C=C/C=C/C=C/1C [Everolimus, 40-O-(2-hydroxyethyl)-rapamycin] ?
Output line: 5

// data source = paper PMC3592886
